biological target: T1, human plasma kallikrein (human, UniProt P03952 20-390; P03952 391-638); assay: ELISA; signal on biotinylated plasma kallikrein divided by signal on streptavidin background
T1 construct: also called pKal; human pKal
T1 sequence (P03952 20-390, chain 1 of 2): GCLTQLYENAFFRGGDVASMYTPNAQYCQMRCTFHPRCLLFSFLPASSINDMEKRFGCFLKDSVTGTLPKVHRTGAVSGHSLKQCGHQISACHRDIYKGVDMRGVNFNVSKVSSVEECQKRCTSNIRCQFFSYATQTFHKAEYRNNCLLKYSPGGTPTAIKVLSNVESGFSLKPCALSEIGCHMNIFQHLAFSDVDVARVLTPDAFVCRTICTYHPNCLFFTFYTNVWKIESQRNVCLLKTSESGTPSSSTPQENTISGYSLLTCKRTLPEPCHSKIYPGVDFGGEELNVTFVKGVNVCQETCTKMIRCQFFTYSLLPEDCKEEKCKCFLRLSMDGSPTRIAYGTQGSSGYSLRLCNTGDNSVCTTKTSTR
T1 sequence (P03952 391-638, chain 2 of 2): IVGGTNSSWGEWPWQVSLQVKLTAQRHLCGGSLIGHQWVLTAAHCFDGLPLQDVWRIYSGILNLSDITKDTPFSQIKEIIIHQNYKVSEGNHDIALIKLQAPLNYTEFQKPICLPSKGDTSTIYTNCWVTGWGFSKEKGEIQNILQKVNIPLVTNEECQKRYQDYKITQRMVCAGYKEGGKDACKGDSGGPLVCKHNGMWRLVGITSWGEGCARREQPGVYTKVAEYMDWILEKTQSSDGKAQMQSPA
Attribute Measured: ELISA (T/B) (T/B ratio)
Express the result in T/B ratio but write the number alone.

M137-E12 (antibody, V domains shown) VH: EVQLLESGGGLVQPGGSLRLSCAASGFTFSDYRMQWVRQAPGKGLEWVSVIVPSGGNTMYADSVKGRFTISRDNSKNTLYLQMNSLRAEDTAVYYCARGGPGSSIAARPAPTGYYGMDVWGQGTTVTVSS VL: QSVLIQPPSVSGIPGQRVTISCSGNNSNFGSNTVTWYQQLPGTAPKLLIYSDSRRPSGVPDRFSGSRSDTSASLAISGLQSEDEAEYHCAAWDDSLNGVFGGGTKLTVL    4.5

Lab book: ELISA (T/B) of M152-A12 (antibody, V domains shown) VH: EVQLLESGGGLVQPGGSLRLSCAASGFTFSPYFMGWVRQAPGKGLEWVSGIGPSGGSTTYADSVKGRFTISRDNSKNTLYLQMNSLRAEDTAVYYCAREGPPYSSGWYRGLRQYHFDYWGQGTLVTVSS VL: DIQMTQSPSSLSASVGDRVTITCRASQSISSYLSWYQQRPGKAPNLLIYAASSLQSGVPSRFSGSGSGTDFTLTISSLQPEDFATYYCQQSISIPRTFGQGTKVEVK noted as 19

Lab book: ELISA (T/B) of M160-G12 (antibody, V domains shown) VH: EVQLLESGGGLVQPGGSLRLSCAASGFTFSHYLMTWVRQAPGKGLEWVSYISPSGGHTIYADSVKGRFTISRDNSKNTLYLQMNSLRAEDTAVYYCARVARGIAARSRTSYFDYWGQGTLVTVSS VL: DIQMTQSPSFLSASVGDRVTITCRASQGISSYLAWYQQKPGKAPKLLIYAASTLQSGVPSRFSGSGSGTEFTLTISSLQPEDFATYYCQQLNSYPLTFGGGTKVEIK noted as 38.3

Attribution: patent US20100183625A1
